assay system: T1, TIAM2, Q8IVF5
T1 sequence (Q8IVF5 885-986, limits assumed, looked up): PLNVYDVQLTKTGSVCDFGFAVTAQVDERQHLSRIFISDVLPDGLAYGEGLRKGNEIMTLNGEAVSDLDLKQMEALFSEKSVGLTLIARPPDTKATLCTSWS
experiment description: holdup assay
Set-up: key: below the threshold = too weak to quantify, mostly under pKd 3.1 to 4
condition context: plain residues with an end cap or a label only (N-terminal biotin on a linker: ado-ado)
measurement type: pKd
Give a plain numeric answer without units written out.

Take a look at these entries with their results.
{"columns": ["binder", "meas value"],
 "data": [
  ["QRPYRRGSEI [KCNJ18, B7U540]", 4.11],
  ["NISYRRESAI [KCNJ4, P48050]", 4.07],
  ["TISFTQTSQF [SLC1A1, P43005]", 4.14],
  ["LPAVCYDIDI [PTTG2, Q9NZH5]", 3.87]
]}

Now look at this entry.
Exercise: Tell me the measured pKd of DFLSTFHIRI [CIB2, O75838] , please.
Key: 4.59
